Biological target: human polyclonal IgG (Gammanorm) (human)
Assay: SPR (Biacore), ligand amine-coupled to CM5 chip, 1 mg/ml IgG flowed; IgG binding signal left after 100 cycles of 100 mM NaOH, 10 min
Value Kind: Retained capacity after 100 cycles (%)
A number alone suffices; assume %.

What value of Retained capacity after 100 cycles (%) has been recorded for this entry: Protein L (protein) AIHNRAKEETPETPETDSEEEVTIKANLIFANGSTQTAEFKGTFEKATSEAYAYADTLKKDNGEYTVDVADKGYTLNIKFAGKEKTPEEPKEEVTIKANLIYADGKTQTAEFKGTFEEATAEAYRYADALKKDNGEYTVDVADKGYTLNIKFAGKEKTPEEPKEEVTIKANLIYADGKTQTAEFKGTFEEATAEAYRYADLLAKENGKYTVDVADKGYTLNIKFAGKEKTPEEPKEEVTIKANLIYADGKTQTAEFKGTFAEATAEAYRYADLLAKENGKYTADLEDGGYTINIRFAGKKVDEKPEE 23

Another binder: D3(N10Q, N45A, N60Q)4 (designed binder) PKEEVTIKAQLIYADGKTQTAEFKGTFEEATAEAYRYADLLAKEAGKYTVDVADKGYTLQIKFAGKEKTPEEPKEEVTIKAQLIYADGKTQTAEFKGTFEEATAEAYRYADLLAKEAGKYTVDVADKGYTLQIKFAGKEKTPEEPKEEVTIKAQLIYADGKTQTAEFKGTFEEATAEAYRYADLLAKEAGKYTVDVADKGYTLQIKFAGKEKTPEEPKEEVTIKAQLIYADGKTQTAEFKGTFEEATAEAYRYADLLAKEAGKYTVDVADKGYTLQIKFAGKEKTPEE 60
